test: in vivo; details: rat, plasma, sc, 2.18 mg/kg/day
Bridges are numbered along the chain shown (N, C = ends). Where no end group is shown, it is not given here.
readout.kind: level at time molar at 96 h (nM)
Note: unit nM is implicit; provide only the numeric part.

Input line: Fill blank: measured level at time molar at 96 h of the substance H-GGGGSGHEEPCGPSHKSFCLNGGLCYQIPTIPSPFCRCVENYTGARCEKVFL (disulfide 11-25, 19-36, 38-47 (inferred)) [Example 9] is ____.
Output line: 31.4

---

test: in vivo; conditions: rat, plasma, sc, 2.18 mg/kg/day
Bridges are numbered along the chain shown (N, C = ends). Where no end group is shown, it is not given here.
readout.kind: level at time molar at 48 h (nM)
Note: unit nM is implicit; provide only the numeric part.

Input line: Fill blank: measured level at time molar at 48 h of the substance H-GGGGSGHEEPCGPSHKSFCLNGGLCYQIPTIPSPFCRCVENYTGARCEKVFL (disulfide 11-25, 19-36, 38-47 (inferred)) [Example 9] is ____.
Output line: 40.1
